# Tested on: NCI-H522 lung
# assay procedure: NCI tumour cell line growth inhibition, 48 h
Peptide text beside a SMILES is read from it. * marks the point of attachment. Boc = CC(C)(C)OC(=O)*
TGI overview

{"columns": ["compound", "TGI"],
 "data": [
  ["COc1cc(/C=C\\c2cccnc2Nc2ccccc2)cc(OC)c1OC", "40.7 µM"],
  ["COC1=CC2(C=CC1=O)CCN=c1c(O)c3c(c(O)c12)=NC=N3 (stereo not given)", "> 100 µM"],
  ["Cc1ccc(S(=O)(=O)NC(=O)NS(=O)(=O)O)cc1", "> 100 µM"],
  ["COCCCN1C(=O)C2c3[nH]c4ccccc4c3C3CCC(C(C)(C)C)CC3C2C1=O (stereo not given)", "55.4 µM"],
  ["CC(=O)Oc1ccc2c(c1)c1c(OC(C)=O)c3ccccc3c(OC(C)=O)c1n2Cc1cccc(C)c1", "52.8 µM"],
  ["Cc1ccc(C2=Nn3c(nc4sc(-c5ccccc5)cc4c3=O)SC2)cc1", "> 100 µM"],
  ["CCOc1ccc(NC(=S)/N=C/C(C(=O)Nc2ccccc2C)=C(\\C)O)cc1", "> 100 µM"],
  ["Cc1cc(S(=O)(=O)NC(=NCC(=O)NN)NN)c(S)cc1Cl", "> 10 µM"],
  ["COc1cc(C2S/C(=C/c3ccccc3)C(=O)N2c2ccc(Cl)cc2)cc(OC)c1OC (stereo not given)", "21.2 µM"],
  ["COC(=O)c1ccc(OCc2ccc3nc(-c4ccccc4)c(Cl)nc3c2)cc1", "45.7 µM"],
  ["Cc1nc(C(N)=S)sc1C(=O)CC(=O)C(=O)Nc1cccc(Cl)c1C", "> 100 µM"],
  ["CC(C)C[C@H](NC(=O)[C@@H](O)[C@H](N)Cc1ccccc1)C(=O)O", "> 100 µM"],
  ["COC(=O)C1=C(O)C(C(=O)OC)[C@@]2(O)[C@@H](C(=O)OC)C(c3ccc(OC(=O)C(CC(C)C)NC(C)=O)cc3)C[C@@H]1[C@@H]2C(=O)OC (stereo not given in full)", "> 100 µM"],
  ["O=C1c2ccccc2C(=O)c2c1ccc1c3ccccc3n(Cc3ccccc3)c21", "> 100 µM"],
  ["C=CC1(CCC(Br)C(C)(C)Cl)CO1 (stereo not given)", "> 10 µM"],
  ["C/C(=N\\NC(=S)N1CCC(C2CCN(C(=S)N/N=C(\\C)c3ccccn3)CC2)CC1)c1ccccn1", "> 100 µM"],
  ["CC(=O)Nc1ccc(C(=O)N2N=C(C)/C(=C/c3cccc(O)c3)C2=O)cc1", "> 100 µM"],
  ["CSCCC(NC(=O)C(CC(C)C)NC(=O)CNC(=O)OC(C)(C)C)C(=O)N(C)C (stereo not drawn) (Boc-Gly-Leu-Met-NMe2; configuration not given here)", "> 100 µM"],
  ["CCC1(N2C(=O)c3c(F)c(F)c(F)c(F)c3C2=O)C(=O)NC(=O)N(c2ccccc2)C1=O (stereo not given)", "26.2 µM"],
  ["COc1ccc(S(=O)(=O)Nc2ccc(-c3csc(N4C(=O)/C(=C/C=C\\c5ccccc5)N=C4c4ccccc4)n3)cc2)cc1Cl", "47.3 µM"]
]}

* * *

Let's look at some compounds and their measured TGI.
# Tested on: SR leukemia
# assay procedure: NCI tumour cell line growth inhibition, 48 h

{"columns": ["compound", "quantity unit", "bound sign", "TGI"],
 "data": [
  ["COC1(OC)/C(=C(\\N)C=O)NC(C)(C)N1O", "µM", ">", 100],
  ["COc1cccc(N2N=C3c4ccccc4-n4c(nc5ccccc54)C3C2N)c1 (stereo not given)", "µM", ">", 100],
  ["COC(=O)CCc1ccc2c(c1)CC1(C2)Cc2ccc(CCC(=O)OC)cc2C1", "µM", "=", 61.5],
  ["COc1cc(O)c2c(c1)C(O)C(O)CC1OC1C(=O)/C=C/CC(C)OC2=O (stereo not given)", "µM", ">", 45.4],
  ["CC(=O)Oc1ccc2c(c1)c1c(OC(C)=O)c3ccccc3c(OC(C)=O)c1n2Cc1cccc(C)c1", "µM", "=", 83.1]
]}

* * *

# System: U251 CNS
# assay procedure: NCI tumour cell line growth inhibition, 48 h
Decision: TGI >= 7 µM yields true (1), all other cases yield false (0).

{"columns": ["compound", "classification"],
 "data": [
  ["CCN(CC)c1ccc(C(=C2C=CC(=[N+](CC)CC)C=C2)c2ccccc2)cc1", "false (0)"],
  ["CCN1CC2(C)CC[C@@H](OC)C34[C@@H]2[C@H](OC(C)=O)C2(OCO[C@@]25C[C@H](OC)C2C[C@]3(O)[C@@H]5[C@H]2O)[C@H]14", "true (1)"],
  ["C=C1C(=O)O[C@H]2C(=O)[C@H](C)CCC[C@@](C)(O)/C=C\\C[C@@]3(C)O[C@@H]3C[C@@H]12", "true (1)"],
  ["CCOc1ccc(NC(=S)/N=C/C(C(=O)Nc2ccccc2C)=C(\\C)O)cc1", "true (1)"],
  ["Cc1nn(C(=O)c2ccccc2O)c2c1C(c1ccc(O)cc1)SC(N)=N2 (stereo not given)", "true (1)"],
  ["Cc1ns/c(=N\\C(=S)N(C)C)n1C", "true (1)"],
  ["CN1CCN(C(=S)SCN2C(=O)c3ccccc3S2(=O)=O)CC1", "true (1)"],
  ["CCOC(=N)CC(=O)NC(C)c1ccccc1 (stereo not given)", "true (1)"],
  ["CC(C)(C)c1ccc(S(=O)(=O)N[C@H]2CC[C@H]3[C@@H]4CCc5cc(O)ccc5[C@H]4CC[C@]23C)cc1", "false (0)"],
  ["CCC1NCC(=O)c2c1[nH]c1ccccc21 (stereo not given)", "true (1)"],
  ["O=c1[nH]c(-c2ccccn2)nc2sc3c(c12)CCCCCC3", "true (1)"],
  ["COc1ncnc2c(-c3ccco3)cn(COCc3ccccc3)c12", "true (1)"],
  ["C=CC[PH+](c1ccccc1)c1ccccc1.C=CC[PH+](c1ccccc1)c1ccccc1.[Cl][Pt][Cl]", "true (1)"],
  ["CC(C)CC1c2[nH]c3ccccc3c2C[C@H]2C(=O)NC(COC(C)(C)C)C(=O)N12 (stereo not given in full)", "true (1)"],
  ["Cc1nc(C(N)=S)sc1C(=O)CC(=O)C(=O)Nc1cccc(Cl)c1C", "true (1)"],
  ["COC(=O)Nc1nc2ccc(Sc3ccc(NC(=O)Nc4cc(C(F)(F)F)ccc4F)cc3)cc2[nH]1", "true (1)"],
  ["COc1cc2c(c(OC)c1OC)-c1ccc(SC)c(=O)cc1[C@@H](NC(=O)c1ccc(C#N)cc1)CC2", "false (0)"],
  ["NC(CO)c1ccccc1 (stereo not given)", "true (1)"],
  ["CC1(C)CC2(C)OC2C2(C1)N=NC(=Nc1ccccc1)O2 (stereo not given)", "true (1)"],
  ["Cn1c(COC(=O)NCCN2CCOCC2)nc2c(N3CCOCC3)nc(-c3ccccc3)nc21", "false (0)"]
]}

* * *

# TGI annotations
# Tested on: MDA-N
# assay procedure: NCI tumour cell line growth inhibition, 48 h

{"columns": ["compound", "test system", "TGI"],
 "data": [
  ["C=C(C)[C@]12CC(C)C34OC(/C=C\\C=C\\CCCCCCCCC)(O[C@@H]1[C@@H]3[C@@H]1O[C@]1(CO)[C@@H](O)[C@]1(O)C(=O)C(C)=C[C@@H]41)O2 (stereo partly drawn)", "MDA-N", "19 µM"],
  ["O=C(Cc1nc2ccc([N+](=O)[O-])cc2[nH]c1=O)C(=O)Nc1cc(Cl)c(Cl)cc1Cl", "MDA-N", "> 100 µM"],
  ["CC(C)(C)NCCC(O)c1cc(C(F)(F)F)nc2c(C(F)(F)F)cccc12 (stereo not drawn)", "MDA-N", "24 µM"],
  ["CCOC(=O)Cc1nc2c(=O)[nH]cnc2n1C1OC(COC(C)=O)C(OC(C)=O)C1OC(C)=O (stereo not drawn)", "MDA-N", "> 100 µM"],
  ["O=C1O/C(=C\\c2ccc(O)cc2)C(c2ccc(O)c(Cl)c2)=C1Br", "MDA-N", "> 100 µM"],
  ["CC(=O)OCC1OC(n2c3c(c(-c4ccco4)c(C#N)c2=S)CCCC3)C(OC(C)=O)C(OC(C)=O)C1OC(C)=O (stereo not drawn)", "MDA-N", "> 31.6 µM"],
  ["COc1cc2c(cc1OC)[C@H]1C(=O)c3cc4c(cc3[C@H]1N(C)C2=O)OCO4", "MDA-N", "> 100 µM"],
  ["COc1cc(O)c2c(c1)C(O)C(O)CC1OC1C(=O)/C=C/CC(C)OC2=O (stereo not drawn)", "MDA-N", "21.6 µM"]
]}

Origin of the recorded values: PubChem BioAssay (NCI)
